Target: complement C1q, P02745;P02746;P02747
Experiment: MST
Settings: chain shown with the change
Each entry below carries its reported Kd.
Give a bare numeral; the unit µM is implied.

# binder, Kd (µM)
records = [
    ("truncated Trichinella spiralis calreticulin TsCRT^Δ (22-209, GSG linker, 305-364) W323A; V325A (protein) MGSSHHHHHHSSGENLYFQGGSEPTIYLKETFDDGDAWKERWVQSKHKDDYGEWQLSHGKLFADENDMGLKTMQDARFYSLSRKFDKVVDNKDKPLVIVYTVKHEQDIDCGGGYIKLMLENTDLEDFNSDTPYRIMFGPDICGPEKRAVHSILWHDGKNYEKRKNAIAMADIFTHAYKLIIFPNNSYEIWVNNDKEAYGRLEDDWTMTEPGSGPVPELYRYKGLGAIGFELAQAKSGTIFDNILITDDPEYAKEFIDKQLEALRPIEKVESDK", 22.9),
    ("truncated Trichinella spiralis calreticulin TsCRT^Δ (22-209, GSG linker, 305-364) C141A; K145A (protein) EPTIYLKETFDDGDAWKERWVQSKHKDDYGEWQLSHGKLFADENDMGLKTMQDARFYSLSRKFDKVVDNKDKPLVIVYTVKHEQDIDCGGGYIKLMLENTDLEDFNSDTPYRIMFGPDIAGPEARAVHSILWHDGKNYEKRKNAIAMADIFTHAYKLIIFPNNSYEIWVNNDKEAYGRLEDDWTMTEPGSGPVPELYRYKGLGAIGFELWQVKSGTIFDNILITDDPEYAKEFIDKQLEALRPIEKVESDK", 34.8),
    ("truncated Trichinella spiralis calreticulin TsCRT^Δ (22-209, GSG linker, 305-364) D139A; H149A (protein) EPTIYLKETFDDGDAWKERWVQSKHKDDYGEWQLSHGKLFADENDMGLKTMQDARFYSLSRKFDKVVDNKDKPLVIVYTVKHEQDIDCGGGYIKLMLENTDLEDFNSDTPYRIMFGPAICGPEKRAVASILWHDGKNYEKRKNAIAMADIFTHAYKLIIFPNNSYEIWVNNDKEAYGRLEDDWTMTEPGSGPVPELYRYKGLGAIGFELWQVKSGTIFDNILITDDPEYAKEFIDKQLEALRPIEKVESDK", 19),
]

Read the next record carefully.
Ask: Give the measured Kd of truncated Trichinella spiralis calreticulin TsCRT^Δ (22-209, GSG linker, 305-364) M135A; I151A (protein) EPTIYLKETFDDGDAWKERWVQSKHKDDYGEWQLSHGKLFADENDMGLKTMQDARFYSLSRKFDKVVDNKDKPLVIVYTVKHEQDIDCGGGYIKLMLENTDLEDFNSDTPYRIAFGPDICGPEKRAVHSALWHDGKNYEKRKNAIAMADIFTHAYKLIIFPNNSYEIWVNNDKEAYGRLEDDWTMTEPGSGPVPELYRYKGLGAIGFELWQVKSGTIFDNILITDDPEYAKEFIDKQLEALRPIEKVESDK .
Result: 5.99

Where do these numbers come from? They come from paper PMC11059001.
